system: Trichophyton mentagrophytes; assay: Antifungal activity in vitro, resazurin growth inhibition: Trichophyton mentagrophytes (B70554); type: cell-based
Property: Inf. G: Trichophyton mentagrophytes B70554, pIC50

Prompt: What Inf. G: Trichophyton mentagrophytes B70554, pIC50 value was documented for this compound, Cc1cc(C2=NCc3c(Cl)cccc3-n3cccc32)ccn1 ?
Completion: 5.00

Prompt: What Inf. G: Trichophyton mentagrophytes B70554, pIC50 value was documented for this compound, Clc1cccc2c1CN=C(c1nc3ccccc3s1)c1cccn1-2 ?
Completion: 4.39

Prompt: What Inf. G: Trichophyton mentagrophytes B70554, pIC50 value was documented for this compound, Clc1ccc2c(c1)-n1cccc1C(c1ccc3scc(Cl)c3c1)=NC2 ?
Completion: 4.26
